# Tested on: Epithelial cell
# protocol description: Recovery of short-circuit current in dog primary bronchial epithelial cells
# Assay type: functional, Canis lupus familiaris
Please go through the items and note down their Activity.
Form entry: enter the amount, then its unit.

Exercise: # returns recorded Activity (system: Epithelial cell) for N/C(=N\C(=O)c1nc(Cl)c(N)nc1N)NCCCc1ccccc1
Solution: 23%

Exercise: # returns recorded Activity (system: Epithelial cell) for N/C(=N\C(=O)c1nc(Cl)c(N)nc1N)NCCCCc1ccccc1O
Solution: 11%

Exercise: # returns recorded Activity (system: Epithelial cell) for N/C(=N\C(=O)c1nc(Cl)c(N)nc1N)NCCCCCCc1ccccc1
Solution: 12%

Exercise: # returns recorded Activity (system: Epithelial cell) for N/C(=N\C(=O)c1nc(Cl)c(N)nc1N)NCCCCc1ccc(OC[C@H](O)CO)cc1
Solution: 25%

Exercise: # returns recorded Activity (system: Epithelial cell) for COc1ccc(CCC/N=C(\N)NC(=O)c2nc(Cl)c(N)nc2N)cc1
Solution: 57%

* * *

# Test system: Epithelial cell
# protocol description: Recovery of short-circuit current in dog primary bronchial epithelial cells
# Assay type: functional, Canis lupus familiaris
Please go through the items and note down their Activity.
Give a bare numeral; the unit % is implied.

Exercise: // lookup Activity for COc1ccc(COCC/N=C(\N)NC(=O)c2nc(Cl)c(N)nc2N)cc1
Solution: 72

Exercise: // lookup Activity for N/C(=N\C(=O)c1nc(Cl)c(N)nc1N)NCCCCc1ccc(OCC(=O)O)cc1
Solution: 79

Exercise: // lookup Activity for N/C(=N\C(=O)c1nc(Cl)c(N)nc1N)NCCCc1ccc(O)cc1
Solution: 65

Exercise: // lookup Activity for CCCCCCCC/N=C(\N)NC(=O)c1nc(Cl)c(N)nc1N
Solution: 7

Exercise: // lookup Activity for N=C(N)NC(=O)c1nc(Cl)c(N)nc1N [AMILORIDE]
Solution: 96

Exercise: // lookup Activity for N/C(=N\C(=O)c1nc(Cl)c(N)nc1N)NCCCCCc1ccccc1
Solution: 6

Exercise: // lookup Activity for N/C(=N\C(=O)c1nc(Cl)c(N)nc1N)NCCCOc1ccc(O)cc1
Solution: 73

Exercise: // lookup Activity for N/C(=N\C(=O)c1nc(Cl)c(N)nc1N)NCCCCc1ccc(OCCCO)cc1
Solution: 17

Exercise: // lookup Activity for N/C(=N\C(=O)c1nc(Cl)c(N)nc1N)NCCCCc1ccccc1OCCO
Solution: 21

Exercise: // lookup Activity for N/C(=N\C(=O)c1nc(Cl)c(N)nc1N)NCCCCc1ccc(OCCC(=O)O)cc1
Solution: 65

* * *

# Test system: Epithelial cell
# protocol description: Recovery of short-circuit current in dog primary bronchial epithelial cells
# Format: functional, Canis lupus familiaris
Could you please mark true for values of Activity below 20% and false for values at or above it?

Exercise: In plain terms, does COc1ccc(OCCC/N=C(\N)NC(=O)c2nc(Cl)c(N)nc2N)cc1 come in under 20% for Activity?
Solution: false

Exercise: In plain terms, does N/C(=N\C(=O)c1nc(Cl)c(N)nc1N)NCCCCc1ccc(O)c(O)c1 come in under 20% for Activity?
Solution: false

Exercise: In plain terms, does N/C(=N\C(=O)c1nc(Cl)c(N)nc1N)NCc1ccccc1 [BENZAMIL] come in under 20% for Activity?
Solution: false

Exercise: In plain terms, does N/C(=N\C(=O)c1nc(Cl)c(N)nc1N)NCCCCCc1ccc(O)cc1 come in under 20% for Activity?
Solution: false

Exercise: In plain terms, does COC(=O)c1ccc(CCCC/N=C(\N)NC(=O)c2nc(Cl)c(N)nc2N)cc1 come in under 20% for Activity?
Solution: true
